These measurements were taken from PubChem BioAssay (NCI).

Provide the recorded growth for the entries that follow.
- Tested on: CCRF-CEM leukemia
- assay-info: NCI-60 one-dose screen, 48 h (100 = growth as untreated, 0 = no growth, -100 = all killed)
- measurement-conditions: 10 µM
About 83,000 compounds went through this panel and 20% of them were active in at least one assay; those are over-represented in the sample as a whole.
One number for each entry, in %.

molecule	growth [%]
Clc1ccc2c(c1)C(N1CCNCC1)=Nc1ccccc1O2	58.5
CCOC(=O)/C(=C(\C)N)C1CC(=O)NC1=O (stereo unspecified)	96.2
COc1ccc(N(C)c2ncnc3occ(C)c23)cc1	-20.9
O=C(COc1cccc(/C=C2\CSc3ccc(Cl)cc3C2=O)c1)c1ccc(Cl)cc1	-26.1
COc1ccc2nc3cc(Cl)ccc3c(Nc3cc(CN4CCCC4)c(O)c(CN4CCCC4)c3)c2n1	2.85

Suppose we examine the molecule C[n+]1c2ccccc2nc2ccccc21 ; what growth value has been reported?
-0.566
